Origin of the recorded values: patent US9695152B2

target: CYP11B2 (Homo sapiens (Human), UniProt P19099); assay: G-402 cellular enzyme assay, human CYP11B2 (aldosterone release, HTRF); format: cell-based; conditions: G-402 cells expressing human CYP11B2, 1 μM Deoxycorticosterone
Sequence (P19099 25-503): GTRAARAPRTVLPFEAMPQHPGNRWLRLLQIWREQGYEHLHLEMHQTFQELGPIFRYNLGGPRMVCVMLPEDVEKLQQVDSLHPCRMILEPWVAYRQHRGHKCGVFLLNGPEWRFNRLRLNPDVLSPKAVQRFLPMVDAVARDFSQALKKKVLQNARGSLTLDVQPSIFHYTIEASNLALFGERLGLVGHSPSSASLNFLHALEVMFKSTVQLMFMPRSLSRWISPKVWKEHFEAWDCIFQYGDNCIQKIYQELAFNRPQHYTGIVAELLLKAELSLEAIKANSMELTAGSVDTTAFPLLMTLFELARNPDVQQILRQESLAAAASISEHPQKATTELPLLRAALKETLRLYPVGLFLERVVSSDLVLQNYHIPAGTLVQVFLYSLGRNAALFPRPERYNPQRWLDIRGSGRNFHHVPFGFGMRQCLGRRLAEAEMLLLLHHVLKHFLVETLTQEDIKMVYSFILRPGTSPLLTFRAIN
In this section, each of the compounds is paired with its reported EC50.
Write it as a number; the unit nM goes unstated.

(Q) // map Cn1ccnc1C(=O)N1CC(Nc2cncc(N3C(=O)c4ccc(C#N)cc4C3(C)C)c2)C1 to recorded EC50 (system: CYP11B2 (Homo sapiens (Human), UniProt P19099))
(A) 5

---

In this section, each of the compounds is paired with its reported pEC50.
target: human CYP11B1 (Homo sapiens (Human), UniProt P15538); test: G-402 cellular enzyme assay, human CYP11B1 (cortisol release, HTRF); settings: G-402 cells expressing human CYP11B1, 1 μM Deoxycortisol
Sequence (P15538 25-503): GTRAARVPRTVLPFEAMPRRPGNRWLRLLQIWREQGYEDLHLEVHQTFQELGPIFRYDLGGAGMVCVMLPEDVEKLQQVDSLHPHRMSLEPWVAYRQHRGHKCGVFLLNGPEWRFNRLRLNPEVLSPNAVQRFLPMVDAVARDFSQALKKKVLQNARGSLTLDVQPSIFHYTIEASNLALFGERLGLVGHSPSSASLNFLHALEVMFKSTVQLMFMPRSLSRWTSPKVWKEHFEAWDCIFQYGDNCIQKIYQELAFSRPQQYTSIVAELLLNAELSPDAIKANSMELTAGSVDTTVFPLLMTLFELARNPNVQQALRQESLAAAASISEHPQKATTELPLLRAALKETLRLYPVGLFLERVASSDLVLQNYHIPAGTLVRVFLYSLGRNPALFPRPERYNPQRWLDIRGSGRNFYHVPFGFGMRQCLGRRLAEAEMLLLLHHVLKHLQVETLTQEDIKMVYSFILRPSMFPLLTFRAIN
Give only the number. pEC50 is defined as minus log10 of concentration in molar units.

Recorded results for 5 compounds are shown here.
>>> result("Cc1noc(C)c1C(=O)N1CC(Nc2cncc(N3CCc4cc(Cl)ccc4C3=O)c2)C1 [Example 20]")
5.41
>>> result("Cc1noc(C)c1C(=O)N1CC(Nc2cncc(N3C(=O)c4ccc(Cl)cc4C3(C)C)c2)C1 [Example 23]")
5.23
>>> result("Cc1ccncc1C(=O)N1CC(Nc2cncc(N3C(=O)c4ccc(C#N)cc4C3(C)C)c2)C1 [Example 32]")
5.21
>>> result("Cn1ccnc1C(=O)N1CC(Nc2cncc(N3CCc4cc(Cl)ccc4C3=O)c2)C1 [Example 22]")
5.68
>>> result("CC1c2cc(Cl)ccc2C(=O)N1c1cncc(NC2CN(C(=O)c3ncccc3Cl)C2)c1 (centres unmarked) [Example 12]")
5.74

(Q) Please look up its pEC50: CC1(C)c2cc(Cl)ccc2C(=O)N1c1cncc(NC2CN(C(=O)c3ncccc3Cl)C2)c1 [Example 9]
(A) 6.53

(Q) Please look up its pEC50: Cc1ccncc1C(=O)N1CC(Nc2cncc(N3CCc4cc(Cl)ccc4C3=O)c2)C1 [Example 16]
(A) 5.27

(Q) Please look up its pEC50: Cc1cncc(C(=O)N2CC(Nc3cncc(N4C(=O)c5ccc(Cl)cc5C4(C)C)c3)C2)c1 [Example 11]
(A) 5.71

---

Target: human CYP11B1 (Homo sapiens (Human))
Assay: G-402 cellular enzyme assay, human CYP11B1 (cortisol release, HTRF)
Conditions: G-402 cells expressing human CYP11B1, 1 μM Deoxycortisol
Text: Herein we identified the use of the G-402 cell line as a host cell to ectopically express (transiently or stably) enzymes of the CYP11 family. […] Importantly the identified cell line G-402 expresses co-factors (adrenodoxin and adrenodoxin reductase) important for the activity of the CYP11 family and no relevant enzyme activity of the CYP11 family (in comparison to H295R cells) was detected in these cells. […]
pEC50: −log10 of the molar value.
Assign t whenever pEC50 does not fall below 5; assign f whenever it does.

Known results for compounds:
>>> label_value("CC1c2cc(Cl)ccc2C(=O)N1c1cncc(NC2CN(S(=O)(=O)C3CC3)C2)c1 (centres unmarked) [Example 14]")
"t"
>>> label_value("Cc1ccncc1C(=O)N1CC(Nc2cncc(N3C(=O)c4ccc(Cl)cc4[C@H]3C)c2)C1 (single isomer, unassigned) [Example 25]")
"t"
>>> label_value("Cc1cncc(C(=O)N2CC(Nc3cncc(N4CCc5cc(Cl)ccc5C4=O)c3)C2)c1 [Example 18]")
"t"
>>> label_value("CN(c1cncc(N2C(=O)c3ccc(Cl)cc3C2(C)C)c1)C1CN(S(=O)(=O)C2CC2)C1 [Example 3]")
"t"
>>> label_value("CN(c1cncc(N2C(=O)c3ccc(Cl)cc3C2(C)C)c1)C1CCN(S(=O)(=O)C2CC2)CC1 [Example 6]")
"t"

Please look at the following compound next.
(Q) Has Cn1cc(C(=O)N2CC(Nc3cncc(N4CCc5cc(Cl)ccc5C4=O)c3)C2)cn1 [Example 21] a recorded pEC50 greater than or equal to 5?
(A) f
